assay-system: Serotonin 4 (5-HT4) Receptors (Cavia porcellus)
Construct: the striatum was dissected; from tissue; host or cells: guinea pig (Std-Hartley) brain striatum, membrane fractions
Sequence (O70528 whole entry): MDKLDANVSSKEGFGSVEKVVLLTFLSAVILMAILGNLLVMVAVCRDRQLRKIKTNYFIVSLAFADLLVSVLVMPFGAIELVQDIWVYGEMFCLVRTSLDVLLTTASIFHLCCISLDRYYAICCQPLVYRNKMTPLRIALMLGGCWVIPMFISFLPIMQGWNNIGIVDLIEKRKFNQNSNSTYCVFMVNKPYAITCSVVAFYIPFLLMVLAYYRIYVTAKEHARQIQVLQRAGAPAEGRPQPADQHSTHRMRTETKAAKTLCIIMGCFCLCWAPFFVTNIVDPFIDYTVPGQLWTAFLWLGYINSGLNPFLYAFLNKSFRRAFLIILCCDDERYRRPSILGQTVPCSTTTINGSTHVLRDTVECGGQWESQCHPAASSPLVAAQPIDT
test-description: Binding Assay on Serotonin 4 (5-HT4) Receptors ([3H]-GR113808, striatum membrane fractions)
Parameters: species or system guinea pig (Std-Hartley)
test-parameters: 50% inhibition of specific binding of 0.1 nM [3H]-GR113808; 37° C., 30 min; test compounds are fumarates except numbers marked ** (62, 72, 74: free bases)
Procedure: Std-Hartley guinea pigs weighing 300-400 g were decapitated, and the brain thereof was immediately taken out, and the striatum was dissected. […] The reaction was terminated by rapid vacuum filtration and washing (3×4 ml) with ice-cold 50 mM Tris-HCl buffer (pH 7.7) through Whatman GF/B filter paper using a Brandel cell harvester. […] The radioactivity on the filter was determined with by ACS-II scintillation cocktail by a liquid scintillation counter.
# key: entry, value: IC50

molecule | unit-string | IC50
COc1cc(N)c(Cl)cc1C(=O)NC1CCN(CC2CCN(C(=O)N(C)c3ccccc3)CC2)CC1 | nM | 6.3
COc1cc(N)c(Cl)cc1C(=O)NC1CCN(CC2CCN(CCCC(C)=O)CC2)CC1 | nM | 7.2
CCN(CC)C(=S)N1CCC(CN2CCC(NC(=O)c3cc(Cl)c(N)cc3OC)CC2)CC1 | nM | 6.8
COc1cc(N)c(Cl)cc1C(=O)NC1CCN(CC2CCN(C(=O)N(C(C)C)C(C)C)CC2)CC1 | nM | 15.5
CCN(C)C(=O)N1CCC(CN2CCC(NC(=O)c3cc(Cl)c(N)cc3OC)CC2)CC1 | nM | 11.9
Nc1c(Cl)cc(C(=O)NC2CCN(CC3CCN(C(=O)N4CCCC4)CC3)CC2)c2c1CCO2 | nM | 2.4
CCN(CC)C(=O)N1CCC(CN2CCC(NC(=O)c3cc(Cl)c(N)c4c3OCC4)CC2)CC1 | nM | 2.7
CC(C)Oc1cc(N)c(Cl)cc1C(=O)NC1CCN(CC2CCN(C(=O)N(C)C)CC2)CC1 | nM | 4.3
COc1cc(N)c(Cl)cc1C(=O)NC1CCN(CC2CCN(C(=S)N(C)C)CC2)CC1 | nM | 8
CCOc1cc(N)c(Cl)cc1C(=O)NC1CCN(CC2CCN(C(=O)N(C)C)CC2)CC1 | nM | 4.2
COc1cc(N)c(Cl)cc1C(=O)NC1CCN(CC2CCN(C(=O)c3ccc(Cl)cc3)CC2)CC1 | nM | 4.2
COc1cc(N)c(Cl)cc1C(=O)NC1CCN(CC2CCN(C(=O)c3ccccc3)CC2)CC1 | nM | 6.8
COc1cc(N)c(Cl)cc1C(=O)NC1CCN(CC2CCN(C(=O)N3CCCC3)CC2)CC1 | nM | 8.7
Nc1c(Cl)cc(C(=O)NC2CCN(CC3CCN(C(=O)Nc4ccccc4)CC3)CC2)c2c1CCO2 | nM | 0.36
CCCN(C)C(=O)N1CCC(CN2CCC(NC(=O)c3cc(Cl)c(N)cc3OC)CC2)CC1 | nM | 7.6
COc1cc(N)c(Cl)cc1C(=O)NC1CCN(CC2CCN(C(=O)c3ccc(C)cc3)CC2)CC1 | nM | 4.6
COc1ccc(C(=O)N2CCC(CN3CCC(NC(=O)c4cc(Cl)c(N)cc4OC)CC3)CC2)cc1 | nM | 3.9
CCOc1cc(N)c(Cl)cc1C(=O)NC1CCN(CC2CCN(C(=O)CCOC)CC2)CC1 | nM | 7.7
COc1cc(N)c(Br)cc1C(=O)NC1CCN(CC2CCN(C(=O)N(C)C)CC2)CC1 | nM | 11.5
COc1cc(N)c(Cl)cc1C(=O)NC1CCN(CC2CCN(S(=O)(=O)N(C)C)CC2)CC1 | nM | 14.2
CN(C)C(=S)N1CCC(CN2CCC(NC(=O)c3cc(Cl)c(N)c4c3OCC4)CC2)CC1 | nM | 1.3
CCOc1cc(N)c(Cl)cc1C(=O)NC1CCN(CC2CCN(C(=S)N(C)C)CC2)CC1 | nM | 2.3
COc1cc(N)c(Cl)cc1C(=O)NC1CCN(CC2CCN(CC(C)=O)CC2)CC1 | nM | 18.2
CCCCC(C(=O)OCC)N1CCC(CN2CCC(NC(=O)c3cc(Cl)c(N)cc3OC)CC2)CC1 (stereo not shown) | nM | 12.5
CN(C)C(=O)N1CCC(CN2CCC(NC(=O)c3cc(Cl)c(N)c4c3OCC4)CC2)CC1 | nM | 3.3
CCOc1cc(N)c(Cl)cc1C(=O)NC1CCN(CC2CCN(C(=O)N3CCCC3)CC2)CC1 | nM | 3.2
COc1cc(N)c(Cl)cc1C(=O)NC1CCN(CC2CCN(C(=O)Nc3ccccc3)CC2)CC1 | nM | 1.1
COc1cc(N)c(Cl)cc1C(=O)NC1CCN(CC2CCN(C(=O)N(C)C)CC2)CC1 | nM | 11.9
